Values from BindingDB's records for doi:10.1124/jpet.105.097303

Parameter Ki, tested on Protein kinase C alpha type (Rattus norvegicus), listed per item.
METRIC: Ki (µM)

| COMPOUND STRUCTURE | ASSAY SYSTEM | VALUE REPORTED |
| --- | --- | --- |
| C[C@@H](N)[C@H]1CC[C@H](C(=O)Nc2ccncc2)CC1 | Protein kinase C alpha type (Rattus norvegicus) | 26 |
| COc1ccc2c(c[n+](C)c3c4cc5c(cc4ccc23)OCO5)c1OC | Protein kinase C alpha type (Rattus norvegicus) | 0.66 |

###

# ASSAY SYSTEM: 1-phosphatidylinositol 4,5-bisphosphate phosphodiesterase beta-1 (Rattus norvegicus, UniProt P10687)
# Sequence (P10687 whole entry): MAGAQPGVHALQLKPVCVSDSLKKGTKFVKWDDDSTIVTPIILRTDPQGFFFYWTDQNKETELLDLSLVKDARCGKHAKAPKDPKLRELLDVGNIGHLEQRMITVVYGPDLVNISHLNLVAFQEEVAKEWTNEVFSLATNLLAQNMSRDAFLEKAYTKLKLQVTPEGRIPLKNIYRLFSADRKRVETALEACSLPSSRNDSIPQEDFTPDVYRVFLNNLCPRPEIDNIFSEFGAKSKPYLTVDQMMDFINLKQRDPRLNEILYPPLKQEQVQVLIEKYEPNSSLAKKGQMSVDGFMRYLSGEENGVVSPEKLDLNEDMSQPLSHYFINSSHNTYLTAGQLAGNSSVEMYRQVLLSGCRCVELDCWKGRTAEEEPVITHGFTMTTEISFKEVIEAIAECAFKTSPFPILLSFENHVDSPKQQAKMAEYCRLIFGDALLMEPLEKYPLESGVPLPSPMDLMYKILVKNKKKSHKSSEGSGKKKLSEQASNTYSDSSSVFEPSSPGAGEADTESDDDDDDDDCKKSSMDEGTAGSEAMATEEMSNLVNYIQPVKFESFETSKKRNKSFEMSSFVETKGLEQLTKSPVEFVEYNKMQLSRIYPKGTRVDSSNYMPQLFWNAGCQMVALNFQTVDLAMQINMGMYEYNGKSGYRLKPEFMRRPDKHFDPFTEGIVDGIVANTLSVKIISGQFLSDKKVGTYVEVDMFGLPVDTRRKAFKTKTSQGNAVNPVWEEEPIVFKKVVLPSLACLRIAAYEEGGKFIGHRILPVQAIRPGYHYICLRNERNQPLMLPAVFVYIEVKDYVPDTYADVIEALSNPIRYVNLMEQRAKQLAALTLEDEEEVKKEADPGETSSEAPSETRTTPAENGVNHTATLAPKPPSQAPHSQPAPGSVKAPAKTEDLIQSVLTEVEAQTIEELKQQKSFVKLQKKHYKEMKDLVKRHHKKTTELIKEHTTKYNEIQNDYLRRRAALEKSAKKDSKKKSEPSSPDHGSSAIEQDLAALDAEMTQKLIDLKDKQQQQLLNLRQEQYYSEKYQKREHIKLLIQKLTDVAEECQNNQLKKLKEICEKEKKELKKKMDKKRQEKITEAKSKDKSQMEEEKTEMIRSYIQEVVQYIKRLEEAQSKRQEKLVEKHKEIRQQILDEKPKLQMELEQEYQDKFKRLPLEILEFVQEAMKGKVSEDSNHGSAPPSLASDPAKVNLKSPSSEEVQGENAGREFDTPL

| COMPOUND STRUCTURE | Ki (µM) |
| --- | --- |
| NC[C@@H]1O[C@H](O[C@H]2[C@@H](O)[C@H](O[C@@H]3[C@@H](O)[C@H](N)C[C@H](N)[C@H]3O[C@H]3O[C@H](CN)[C@@H](O)[C@H](O)[C@H]3N)O[C@@H]2CO)[C@H](N)[C@@H](O)[C@@H]1O | 5 |
| CCCCCCCCCCCCCCCCCCOC[C@H](COP(=O)([O-])OCC[N+](C)(C)C)OC | 5 |
